Where these numbers come from: ChEMBL document CHEMBL5120853

assay: Cytotoxicity against HUVEC assessed as reduction in cell viability incubated for 72 hrs by CellTiter-Glo luminescent cell viability assay; assay type: toxicity, cell-based; settings: human, HUVEC cells
Square brackets hold non-standard residues; d marks the D form. Peptide text beside a SMILES is read from it. * marks the point of attachment. Bmt = C/C=C/C[C@@H](C)[C@@H](O)[C@H](N)C(=O)O; Decanoyl = CCCCCCCCCC(=O)*; Leu(ol) = CC(C)C[C@H](N)CO; Aib = CC(C)(N)C(=O)O
PROPERTY_NAME: EC50 at 72 h (µM)
Please give a number only; it is taken to be in µM.

[ask] So what does the record say about EC50 at 72 h for C/C=C/C[C@@H](C)[C@@H](O)[C@H](NC(=O)[C@@H]1CCCN1C(=O)C(C)(C)NC(=O)CCCCCCCCC)C(=O)NC(C)(C)C(=O)N[C@@H](CCC(N)=O)C(=O)N[C@@H](CCC(N)=O)C(=O)NC(C)(C)C(=O)NC(C)(C)C(=O)N[C@@H](CCC(N)=O)C(=O)N[C@H](C(=O)N[C@H](CO)CC(C)C)C(C)C (Decanoyl-[Aib]P[Bmt][Aib]QQ[Aib][Aib]QV[Leu(ol)]) ?
[reply] 8
